pIC50: −log10 of the molar value.
Record: pIC50 reported on hPin1 (Homo sapiens).
Sequence (Q13526 whole entry): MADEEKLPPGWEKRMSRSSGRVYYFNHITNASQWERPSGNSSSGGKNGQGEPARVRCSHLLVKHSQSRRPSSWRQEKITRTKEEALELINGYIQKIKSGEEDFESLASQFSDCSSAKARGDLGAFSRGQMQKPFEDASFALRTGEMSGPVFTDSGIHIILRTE

> print(dat)
                                   molecule      observed
1  CC(CC(=O)Nc1cc(Cl)c(O)c(Cl)c1)CC(C)(C)C (stereo not drawn)        > 6.00
2    Cc1cccc(C)c1NC(=O)Nc1cc(Cl)c(O)c(Cl)c1  5.00 to 6.00
3  CC(C)(C)c1ccc(Oc2cccc(CNc3cc(Cl)cc(Cl)c3O)c2)cc1  5.00 to 6.00
4   O=C(Nc1cc(Cl)c(O)c(Cl)c1)c1ccc2ccccc2c1        > 6.00
5  Cc1c(Cl)cc(NC(=O)NC(C)(C)CC(C)(C)C)c(O)c1Cl  5.00 to 6.00
6  Cc1c(Cl)cc(NC(=S)Nc2ccccc2C(F)(F)F)c(O)c1Cl        > 6.00
7  CC(C)(C)NC(=S)Nc1cc(-c2nc3ccccc3s2)cc(Cl)c1O  5.00 to 6.00
8  Oc1c(Cl)cc(Cl)cc1NCc1cccc(Oc2ccc(Cl)cc2)c1  5.00 to 6.00

// below: pIC50 requested for another molecule
input: Identify measured pIC50 corresponding to "CC(C)=CC(=O)Nc1cc(Cl)c(O)c(Cl)c1"
output: 5.00 to 6.00

###

- SYSTEM UNDER TEST: EcParvulin (Escherichia coli)
- TEST PROTOCOL: protease-coupled PPIase assay, EcParvulin
- Type: biochemical
This section presents molecules with their documented IC50 values.

> print(dat)
                                smiles.code  endpoint.label     observed
1  Cc1c(Cl)cc(NCc2ccccc2Sc2ccc(Cl)cc2)c(O)c1Cl            IC50  10 to 50 µM

input: Identify measured IC50 corresponding to "CCCCCCCCS(=O)(=O)Nc1cc(Cl)c(C)c(Cl)c1O"
output: > 100 µM

input: Identify measured IC50 corresponding to "Oc1c(Cl)cccc1NCc1ccccc1Sc1ccc(Cl)cc1"
output: > 100 µM

input: Identify measured IC50 corresponding to "CCCCCNC(=O)Nc1ccc(C)cc1O"
output: > 100 µM

input: Identify measured IC50 corresponding to "Oc1c(NCc2ccccc2Sc2ccc(Cl)cc2)ccc(F)c1F"
output: 10 to 50 µM

###

Record: pIC50 reported on hCyp18 (Homo sapiens, UniProt P62937).
Sequence (P62937 whole entry): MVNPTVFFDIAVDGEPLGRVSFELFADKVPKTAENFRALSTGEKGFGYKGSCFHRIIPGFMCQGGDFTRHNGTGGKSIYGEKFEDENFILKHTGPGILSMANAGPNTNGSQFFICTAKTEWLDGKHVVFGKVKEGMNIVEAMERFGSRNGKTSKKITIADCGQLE
pIC50: −log10 of the molar value.

Use these answered entries as a reference point.
> print(dat)
                                   compound      observed
1  O=C(Nc1cc(Cl)c(O)c(Cl)c1)NC12CC3CC(CC(C3)C1)C2 [Compound 719]  4.00 to 4.30
2  O=C(CCc1ccccc1)Nc1cc(Cl)c(O)c(Cl)c1 [Compound 1293]        < 4.00
3  CC(C)=CC(=O)Nc1cc(Cl)c(O)c(Cl)c1 [Compound 1296]  4.30 to 5.00
4  Oc1c(Cl)cc(Cl)cc1NCc1ccco1 [Compound 647]        < 4.00
5  CCc1c(Cl)cc(NCc2ccccc2Sc2ccc(Cl)cc2)c(O)c1Cl [Compound 441]  4.30 to 5.00

input: Identify measured pIC50 corresponding to Oc1ccc(NCc2ccccc2Sc2ccc(Cl)cc2)c(O)c1 [Compound 1044]
output: 4.30 to 5.00

input: Identify measured pIC50 corresponding to O=C(Nc1cc(Cl)c(O)c(Cl)c1)c1ccco1 [Compound 1299]
output: > 6.00

input: Identify measured pIC50 corresponding to O=C(NCc1ccccc1)Nc1cc(Cl)c(O)c(Cl)c1 [Compound 700]
output: < 4.00

input: Identify measured pIC50 corresponding to CC(C)(C)CC(C)(C)NC(=O)Nc1cc(Cl)cc(Cl)c1O [Compound 30]
output: < 4.00

input: Identify measured pIC50 corresponding to CCCCCNC(=O)Nc1ccc(C)cc1O [Compound 643]
output: < 4.00

###

This section presents compounds with their documented IC50 values.
- SYSTEM UNDER TEST: EcParvulin (Escherichia coli, UniProt P0A9L5)
- Sequence (P0A9L5 whole entry): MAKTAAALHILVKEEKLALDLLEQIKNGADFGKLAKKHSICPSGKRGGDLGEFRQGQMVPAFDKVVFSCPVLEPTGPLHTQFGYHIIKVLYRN
- TEST PROTOCOL: protease-coupled PPIase assay, EcParvulin
- Assay type: biochemical
- ASSAY CONTEXT: 20 nM EcParvulin, substrate Suc-Ala-Phe-Pro-Phe-pNA, chymotrypsin, pH 7.8, 6° C.; read-out: IC50 class, Target T-5 (EcParv)

> print(dat)
                                smiles.code     observed
1   O=C(Nc1cc(Cl)c(O)c(Cl)c1)c1ccc2ccccc2c1  10 to 50 µM
2  CC(C)(C)CC(C)(C)NC(=O)Nc1cc(Cl)cc(Cl)c1O     > 100 µM
3  Cc1c(Cl)cc(NC(=S)Nc2ccccc2C(F)(F)F)c(O)c1Cl   1 to 10 µM
4  Oc1c(Cl)cc(NC(=S)Nc2ccccc2C(F)(F)F)cc1Cl   1 to 10 µM

input: Identify measured IC50 corresponding to "Cc1c(Cl)cc(NCc2ccccc2)c(O)c1Cl"
output: 10 to 50 µM

###

- TEST PROTOCOL: WST-1 cytotoxicity assay, PC-3
- Assay type: cell-based
- ASSAY CONTEXT: human, PC-3 cells (prostate carcinoma); WST-1, 48 h incubation; read-out: EC50 class, cytotoxic effect, CL-3 (PC-3)
ENDPOINT LABEL: EC50 at 48 h

Use these answered entries as a reference point.
> print(dat)
                                   compound     observed
1  O=C(Nc1cc(Cl)cc(Cl)c1O)c1ccc(-c2ccccc2)cc1      < 10 µM
2  COc1ccc(Oc2cccc(CNc3cc(Cl)cc(Cl)c3O)c2)cc1      < 10 µM
3  CC(O)c1cc(Cl)cc(NCc2ccccc2Sc2ccc(Cl)cc2)c1O (stereo not drawn)  10 to 50 µM
4  Oc1c(Cl)cc(Cl)cc1NCc1ccccc1Sc1ccc(Cl)cc1  10 to 50 µM
5  Cc1c(Cl)cc(NC(=O)NC(C)(C)CC(C)(C)C)c(O)c1Cl      < 10 µM
6          Oc1ccccc1NCc1ccccc1Sc1ccc(Cl)cc1      < 10 µM
7  Cc1c(Cl)cc(NC(=S)Nc2ccccc2C(F)(F)F)c(O)c1Cl  10 to 50 µM
8    Oc1c(NCc2ccccc2Sc2ccc(Cl)cc2)ccc(F)c1F      < 10 µM

input: Identify measured EC50 at 48 h corresponding to "CC(C)(C)CC(C)(C)NC(=O)Nc1cc(Cl)c(O)c(Cl)c1"
output: 10 to 50 µM

###

- SYSTEM UNDER TEST: UniProt:P0A9L5
- TEST PROTOCOL: protease-coupled PPIase assay, EcParvulin
- Type: biochemical
pIC50: −log10 of the molar value.
This section presents compounds with their documented pIC50 values.

> print(dat)
                                   compound  endpoint.label      observed
1  CC(C)(C)CC(C)(C)NC(=O)Nc1cc(Cl)c(O)c(Cl)c1           pIC50  5.00 to 6.00
2          CC(C)=CC(=O)Nc1cc(Cl)c(O)c(Cl)c1           pIC50  4.30 to 5.00
3  Cc1c(Cl)cc(NC(=O)NC(C)(C)CC(C)(C)C)c(O)c1Cl           pIC50  5.00 to 6.00

input: Identify measured pIC50 corresponding to "Cc1c(Cl)cc(NC(=O)NC23CC4CC(CC(C4)C2)C3)c(O)c1Cl"
output: 5.00 to 6.00

input: Identify measured pIC50 corresponding to CC(CC(=O)Nc1cc(Cl)c(O)c(Cl)c1)CC(C)(C)C (stereo not drawn)
output: 5.00 to 6.00

###

- TEST PROTOCOL: WST-1 cytotoxicity assay, HeLa
- Format: cell-based
- ASSAY CONTEXT: human, HeLa cells (cervix carcinoma); WST-1, 48 h incubation; read-out: EC50 class, cytotoxic effect, CL-2 (HeLa)
ENDPOINT LABEL: EC50 at 48 h

> print(dat)
                                   compound     observed
1  CC(C)(C)c1ccc(Oc2cccc(CNc3cc(Cl)cc(Cl)c3O)c2)cc1  10 to 50 µM
2    Oc1c(NCc2ccccc2Sc2cccc(Cl)c2)ccc(F)c1F      < 10 µM
3     Oc1ccc(NCc2ccccc2Sc2ccc(Cl)cc2)c(O)c1  10 to 50 µM

input: Identify measured EC50 at 48 h corresponding to "Oc1c(Cl)cc(Cl)cc1NCc1ccccc1Sc1ccc(Cl)cc1"
output: 10 to 50 µM

###

This section presents compounds with their documented EC50 at 48 h values.
- TEST PROTOCOL: WST-1 cytotoxicity assay, HL-60
- Assay type: cell-based
- ASSAY CONTEXT: human, HL-60 cells (acute myeloid leukemia); WST-1, 48 h incubation; read-out: EC50 class, cytotoxic effect, CL-1 (HL-60)

input: Identify measured EC50 at 48 h corresponding to CC(O)c1cc(Cl)cc(NCc2ccccc2Sc2ccc(Cl)cc2)c1O (centres unmarked) [Compound 413]
output: 10 to 50 µM

input: Identify measured EC50 at 48 h corresponding to Cc1c(Cl)cc(NC(=O)NC(C)(C)CC(C)(C)C)c(O)c1Cl [Compound 102]
output: < 10 µM

input: Identify measured EC50 at 48 h corresponding to CC(CC(=O)Nc1cc(Cl)c(O)c(Cl)c1)CC(C)(C)C (centres unmarked) [Compound 1273]
output: 10 to 50 µM

input: Identify measured EC50 at 48 h corresponding to O=C(Nc1ccc(Cl)cc1)Nc1cc(Cl)c(O)c(NCc2ccccc2Sc2ccc(Cl)cc2)c1 [Compound 633]
output: < 10 µM

input: Identify measured EC50 at 48 h corresponding to Oc1c(NCc2ccccc2Sc2ccc(Cl)cc2)ccc(F)c1F [Compound 399]
output: < 10 µM
